Please go through the items and note down their ELISA Ratio.
# Target: T1, LINGO-Fc (human, UniProt Q96FE5 40-538, limits assumed)
# T1 construct: not shown: Fc part
# T1 sequence: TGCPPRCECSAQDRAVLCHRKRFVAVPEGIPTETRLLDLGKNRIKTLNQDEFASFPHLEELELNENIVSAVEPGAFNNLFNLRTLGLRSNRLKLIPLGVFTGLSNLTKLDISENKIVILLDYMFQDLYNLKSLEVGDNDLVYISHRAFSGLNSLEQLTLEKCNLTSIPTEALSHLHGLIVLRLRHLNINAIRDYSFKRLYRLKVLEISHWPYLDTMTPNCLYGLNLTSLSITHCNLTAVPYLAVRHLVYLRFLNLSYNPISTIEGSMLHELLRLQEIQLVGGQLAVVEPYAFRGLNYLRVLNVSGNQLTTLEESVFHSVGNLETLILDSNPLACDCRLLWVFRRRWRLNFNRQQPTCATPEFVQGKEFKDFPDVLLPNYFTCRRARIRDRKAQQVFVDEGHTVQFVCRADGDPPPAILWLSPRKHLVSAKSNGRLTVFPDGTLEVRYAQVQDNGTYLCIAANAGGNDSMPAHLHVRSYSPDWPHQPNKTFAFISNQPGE
# Assay: direct ELISA on LINGO-Fc; half-maximal concentration relative to Li33;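 also: direct binding ELISA on plates coated with LINGO-Fc, concentration giving half of saturating binding, expressed as a ratio to the same value for the comparator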
Answers are plain numbers, in ratio.

Example entries begin here.
Supply recorded ELISA Ratio for Li33 variant P53W (SEQ ID NO:154) (antibody, V domains shown, unchanged chain from WT Li33) VH: EVQLLESGGGLVQPGGSLRLSCAASGFTFSIYPMFWVRQAPGKGLEWVSWIGWSGGITKYADSVKGRFTISRDNSKNTLYLQMNSLRAEDTATYYCAREGHNDWYFDLWGRGTLVTVSS VL: DIQMTQSPGTLSLSPGERATLSCRASQSVSSYLAWYQQKPGQAPRLLIYDASNRATGIPARFSGSGSGTEFTLTISSLQSEDFAVYYCQQYDKWPLTFGGGTKVEIKR here. 3.9

Supply recorded ELISA Ratio for Li33 variant I57W (SEQ ID NO:181) (antibody, V domains shown, unchanged chain from WT Li33) VH: EVQLLESGGGLVQPGGSLRLSCAASGFTFSIYPMFWVRQAPGKGLEWVSWIGPSGGWTKYADSVKGRFTISRDNSKNTLYLQMNSLRAEDTATYYCAREGHNDWYFDLWGRGTLVTVSS VL: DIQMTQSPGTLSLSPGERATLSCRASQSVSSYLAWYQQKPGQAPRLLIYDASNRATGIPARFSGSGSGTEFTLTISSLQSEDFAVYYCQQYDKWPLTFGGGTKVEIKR here. 0

Supply recorded ELISA Ratio for Li33 variant W104Q (SEQ ID NO:158) (antibody, V domains shown, unchanged chain from WT Li33) VH: EVQLLESGGGLVQPGGSLRLSCAASGFTFSIYPMFWVRQAPGKGLEWVSWIGPSGGITKYADSVKGRFTISRDNSKNTLYLQMNSLRAEDTATYYCAREGHNDQYFDLWGRGTLVTVSS VL: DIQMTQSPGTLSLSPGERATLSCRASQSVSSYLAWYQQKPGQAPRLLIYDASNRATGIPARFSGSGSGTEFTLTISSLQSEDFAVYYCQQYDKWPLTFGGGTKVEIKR here. 2.4

Return reported ELISA Ratio values for all items listed beneath this line.
1. Li33 variant I57S (SEQ ID NO:183) (antibody, V domains shown, unchanged chain from WT Li33) VH: EVQLLESGGGLVQPGGSLRLSCAASGFTFSIYPMFWVRQAPGKGLEWVSWIGPSGGSTKYADSVKGRFTISRDNSKNTLYLQMNSLRAEDTATYYCAREGHNDWYFDLWGRGTLVTVSS VL: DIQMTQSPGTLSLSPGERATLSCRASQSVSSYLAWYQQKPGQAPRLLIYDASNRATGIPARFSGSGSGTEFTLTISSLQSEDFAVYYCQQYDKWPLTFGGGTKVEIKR
2. Li33 variant W94S (SEQ ID NO:172) (antibody, V domains shown, unchanged chain from WT Li33) VH: EVQLLESGGGLVQPGGSLRLSCAASGFTFSIYPMFWVRQAPGKGLEWVSWIGPSGGITKYADSVKGRFTISRDNSKNTLYLQMNSLRAEDTATYYCAREGHNDWYFDLWGRGTLVTVSS VL: DIQMTQSPGTLSLSPGERATLSCRASQSVSSYLAWYQQKPGQAPRLLIYDASNRATGIPARFSGSGSGTEFTLTISSLQSEDFAVYYCQQYDKSPLTFGGGTKVEIKR

0.6
1.3
